Assay Explanation: splat cooling ice recrystallization inhibition (IRI) assay
Particulars: mean grain size vs PBS alone; 30 min at −6.4° C.; FIG. 28
Measurement Type: decrease in grain size

# input Please look up its decrease in grain size: COc1ccc(NC(=O)[C@H](O)[C@@H](O)[C@H](O)[C@H](O)CO)cc1 [(3a), N-(4-methoxyphenyl)-D-gluconamide]
# output ~95%

# input What would you report for O=C(Nc1ccc(Cl)cc1)[C@H](O)[C@@H](O)[C@H](O)[C@H](O)CO [(4a), N-(4-chlorophenyl)-D-gluconamide] ?
# output ~60%

# input What would you report for O=C(Nc1ccccc1F)[C@H](O)[C@@H](O)[C@H](O)[C@H](O)CO [(2a), N-(2-fluorophenyl)-D-gluconamide] ?
# output ~95%
